- Assay type: physicochemical
- Assay conditions: 4500 Lux, 5 days
- Method: Samples of the compound represented by formula (I) and acetate, hydrochloride, citrate and phosphate of the compound represented by formula (I) were respectively placed open and evenly spread, so that the stability of the samples were investigated under the conditions of room temperature, heating (40° C., 60° C.), illumination (4500Lux) and high humidity (RH75% and RH90%). The sampling period is 20 days.
Where a SMILES comes first, the peptide text is derived from it. [ ]: non-standard residue; d: D form. The star is where a group is joined. Gly(N-(2R-Ph-propyl)) = C[C@@H](CNCC(=O)O)c1ccccc1; Piperidin1yl(4-NH2,4-COOH) = NC1(C(=O)O)CCN(*)CC1
Below, each entry is listed with its recorded Purity %.
Endpoint label: Purity % (%)

{"columns": ["Molecule", "Measurement"],
 "data": [
  ["CC(C)C[C@@H](NC(=O)[C@@H](Cc1ccccc1)NC(=O)CNC[C@H](C)c1ccccc1)C(=O)N[C@H](CCCCN)C(=O)N1CCC(N)(C(=O)O)CC1 [Embodiment 4] (H-[Gly(N-(2R-Ph-propyl))][dF][dL][dK]-{Piperidin1yl(4-NH2,4-COOH)})", 95.83],
  ["CC(C)C[C@@H](NC(=O)[C@@H](Cc1ccccc1)NC(=O)CNC[C@H](C)c1ccccc1)C(=O)N[C@H](CCCCN)C(=O)N1CCC(N)(C(=O)O)CC1 [Embodiment 6] (H-[Gly(N-(2R-Ph-propyl))][dF][dL][dK]-{Piperidin1yl(4-NH2,4-COOH)})", 97.13],
  ["CC(C)C[C@@H](NC(=O)[C@@H](Cc1ccccc1)NC(=O)CNC[C@H](C)c1ccccc1)C(=O)N[C@H](CCCCN)C(=O)N1CCC(N)(C(=O)O)CC1 [Embodiment 14] (H-[Gly(N-(2R-Ph-propyl))][dF][dL][dK]-{Piperidin1yl(4-NH2,4-COOH)})", 99.15],
  ["CC(C)C[C@@H](NC(=O)[C@@H](Cc1ccccc1)NC(=O)CNC[C@H](C)c1ccccc1)C(=O)N[C@H](CCCCN)C(=O)N1CCC(N)(C(=O)O)CC1 [Embodiment 20] (H-[Gly(N-(2R-Ph-propyl))][dF][dL][dK]-{Piperidin1yl(4-NH2,4-COOH)})", 97.76],
  ["CC(C)C[C@@H](NC(=O)[C@@H](Cc1ccccc1)NC(=O)CNC[C@H](C)c1ccccc1)C(=O)N[C@H](CCCCN)C(=O)N1CCC(N)(C(=O)O)CC1 [Embodiment 13] (H-[Gly(N-(2R-Ph-propyl))][dF][dL][dK]-{Piperidin1yl(4-NH2,4-COOH)})", 97.29]
]}

---

- Type: physicochemical
- Assay conditions: 4° C., 1 month
Where a SMILES comes first, the peptide text is derived from it. [ ]: non-standard residue; d: D form. The star is where a group is joined. Gly(N-(2R-Ph-propyl)) = C[C@@H](CNCC(=O)O)c1ccccc1; Piperidin1yl(4-NH2,4-COOH) = NC1(C(=O)O)CCN(*)CC1

{"columns": ["Compound", "Unit string", "Purity %"],
 "data": [
  ["CC(C)C[C@@H](NC(=O)[C@@H](Cc1ccccc1)NC(=O)CNC[C@H](C)c1ccccc1)C(=O)N[C@H](CCCCN)C(=O)N1CCC(N)(C(=O)O)CC1 [Embodiment 3] (H-[Gly(N-(2R-Ph-propyl))][dF][dL][dK]-{Piperidin1yl(4-NH2,4-COOH)})", "%", 99.59],
  ["CC(C)C[C@@H](NC(=O)[C@@H](Cc1ccccc1)NC(=O)CNC[C@H](C)c1ccccc1)C(=O)N[C@H](CCCCN)C(=O)N1CCC(N)(C(=O)O)CC1 [Embodiment 9] (H-[Gly(N-(2R-Ph-propyl))][dF][dL][dK]-{Piperidin1yl(4-NH2,4-COOH)})", "%", 99.51],
  ["CC(C)C[C@@H](NC(=O)[C@@H](Cc1ccccc1)NC(=O)CNC[C@H](C)c1ccccc1)C(=O)N[C@H](CCCCN)C(=O)N1CCC(N)(C(=O)O)CC1 [Embodiment 11] (H-[Gly(N-(2R-Ph-propyl))][dF][dL][dK]-{Piperidin1yl(4-NH2,4-COOH)})", "%", 99.49],
  ["CC(C)C[C@@H](NC(=O)[C@@H](Cc1ccccc1)NC(=O)CNC[C@H](C)c1ccccc1)C(=O)N[C@H](CCCCN)C(=O)N1CCC(N)(C(=O)O)CC1 [Embodiment 15] (H-[Gly(N-(2R-Ph-propyl))][dF][dL][dK]-{Piperidin1yl(4-NH2,4-COOH)})", "%", 99.63]
]}

---

Measured Purity %, listed per entry.
- Type: physicochemical
- Assay conditions: 4500 Lux, 20 days
Where a SMILES comes first, the peptide text is derived from it. [ ]: non-standard residue; d: D form. The star is where a group is joined. Gly(N-(2R-Ph-propyl)) = C[C@@H](CNCC(=O)O)c1ccccc1; Piperidin1yl(4-NH2,4-COOH) = NC1(C(=O)O)CCN(*)CC1
Endpoint label: Purity % (%)

{"columns": ["Compound", "Measurement"],
 "data": [
  ["CC(C)C[C@@H](NC(=O)[C@@H](Cc1ccccc1)NC(=O)CNC[C@H](C)c1ccccc1)C(=O)N[C@H](CCCCN)C(=O)N1CCC(N)(C(=O)O)CC1 [Embodiment 6] (H-[Gly(N-(2R-Ph-propyl))][dF][dL][dK]-{Piperidin1yl(4-NH2,4-COOH)})", 92.39],
  ["CC(C)C[C@@H](NC(=O)[C@@H](Cc1ccccc1)NC(=O)CNC[C@H](C)c1ccccc1)C(=O)N[C@H](CCCCN)C(=O)N1CCC(N)(C(=O)O)CC1 [Embodiment 15] (H-[Gly(N-(2R-Ph-propyl))][dF][dL][dK]-{Piperidin1yl(4-NH2,4-COOH)})", 95.76],
  ["CC(C)C[C@@H](NC(=O)[C@@H](Cc1ccccc1)NC(=O)CNC[C@H](C)c1ccccc1)C(=O)N[C@H](CCCCN)C(=O)N1CCC(N)(C(=O)O)CC1 [Embodiment 20] (H-[Gly(N-(2R-Ph-propyl))][dF][dL][dK]-{Piperidin1yl(4-NH2,4-COOH)})", 97.15],
  ["CC(C)C[C@@H](NC(=O)[C@@H](Cc1ccccc1)NC(=O)CNC[C@H](C)c1ccccc1)C(=O)N[C@H](CCCCN)C(=O)N1CCC(N)(C(=O)O)CC1 [Embodiment 4] (H-[Gly(N-(2R-Ph-propyl))][dF][dL][dK]-{Piperidin1yl(4-NH2,4-COOH)})", 92.17],
  ["CC(C)C[C@@H](NC(=O)[C@@H](Cc1ccccc1)NC(=O)CNC[C@H](C)c1ccccc1)C(=O)N[C@H](CCCCN)C(=O)N1CCC(N)(C(=O)O)CC1 [Embodiment 13] (H-[Gly(N-(2R-Ph-propyl))][dF][dL][dK]-{Piperidin1yl(4-NH2,4-COOH)})", 97.28],
  ["CC(C)C[C@@H](NC(=O)[C@@H](Cc1ccccc1)NC(=O)CNC[C@H](C)c1ccccc1)C(=O)N[C@H](CCCCN)C(=O)N1CCC(N)(C(=O)O)CC1 [Embodiment 2] (H-[Gly(N-(2R-Ph-propyl))][dF][dL][dK]-{Piperidin1yl(4-NH2,4-COOH)})", 96.72],
  ["CC(C)C[C@@H](NC(=O)[C@@H](Cc1ccccc1)NC(=O)CNC[C@H](C)c1ccccc1)C(=O)N[C@H](CCCCN)C(=O)N1CCC(N)(C(=O)O)CC1 [Embodiment 14] (H-[Gly(N-(2R-Ph-propyl))][dF][dL][dK]-{Piperidin1yl(4-NH2,4-COOH)})", 99.12],
  ["CC(C)C[C@@H](NC(=O)[C@@H](Cc1ccccc1)NC(=O)CNC[C@H](C)c1ccccc1)C(=O)N[C@H](CCCCN)C(=O)N1CCC(N)(C(=O)O)CC1 [Embodiment 9] (H-[Gly(N-(2R-Ph-propyl))][dF][dL][dK]-{Piperidin1yl(4-NH2,4-COOH)})", 94.24],
  ["CC(C)C[C@@H](NC(=O)[C@@H](Cc1ccccc1)NC(=O)CNC[C@H](C)c1ccccc1)C(=O)N[C@H](CCCCN)C(=O)N1CCC(N)(C(=O)O)CC1 [Embodiment 12] (H-[Gly(N-(2R-Ph-propyl))][dF][dL][dK]-{Piperidin1yl(4-NH2,4-COOH)})", 96.77]
]}

---

- Format: physicochemical
- Assay conditions: 4500 Lux, 5 days
Where a SMILES comes first, the peptide text is derived from it. [ ]: non-standard residue; d: D form. The star is where a group is joined. Gly(N-(2R-Ph-propyl)) = C[C@@H](CNCC(=O)O)c1ccccc1; Piperidin1yl(4-NH2,4-COOH) = NC1(C(=O)O)CCN(*)CC1
# Purity % per entry

{"columns": ["Molecule", "Purity % / %"],
 "data": [
  ["CC(C)C[C@@H](NC(=O)[C@@H](Cc1ccccc1)NC(=O)CNC[C@H](C)c1ccccc1)C(=O)N[C@H](CCCCN)C(=O)N1CCC(N)(C(=O)O)CC1 [Embodiment 2] (H-[Gly(N-(2R-Ph-propyl))][dF][dL][dK]-{Piperidin1yl(4-NH2,4-COOH)})", 96.99],
  ["CC(C)C[C@@H](NC(=O)[C@@H](Cc1ccccc1)NC(=O)CNC[C@H](C)c1ccccc1)C(=O)N[C@H](CCCCN)C(=O)N1CCC(N)(C(=O)O)CC1 [Embodiment 15] (H-[Gly(N-(2R-Ph-propyl))][dF][dL][dK]-{Piperidin1yl(4-NH2,4-COOH)})", 96.07],
  ["CC(C)C[C@@H](NC(=O)[C@@H](Cc1ccccc1)NC(=O)CNC[C@H](C)c1ccccc1)C(=O)N[C@H](CCCCN)C(=O)N1CCC(N)(C(=O)O)CC1 [Embodiment 9] (H-[Gly(N-(2R-Ph-propyl))][dF][dL][dK]-{Piperidin1yl(4-NH2,4-COOH)})", 95.57],
  ["CC(C)C[C@@H](NC(=O)[C@@H](Cc1ccccc1)NC(=O)CNC[C@H](C)c1ccccc1)C(=O)N[C@H](CCCCN)C(=O)N1CCC(N)(C(=O)O)CC1 [Embodiment 12] (H-[Gly(N-(2R-Ph-propyl))][dF][dL][dK]-{Piperidin1yl(4-NH2,4-COOH)})", 96.65]
]}
